Listing of entries alongside the reported pIC50.
# target: PI3Kalpha (Homo sapiens (Human), UniProt P42336)
# Sequence (P42336 whole entry): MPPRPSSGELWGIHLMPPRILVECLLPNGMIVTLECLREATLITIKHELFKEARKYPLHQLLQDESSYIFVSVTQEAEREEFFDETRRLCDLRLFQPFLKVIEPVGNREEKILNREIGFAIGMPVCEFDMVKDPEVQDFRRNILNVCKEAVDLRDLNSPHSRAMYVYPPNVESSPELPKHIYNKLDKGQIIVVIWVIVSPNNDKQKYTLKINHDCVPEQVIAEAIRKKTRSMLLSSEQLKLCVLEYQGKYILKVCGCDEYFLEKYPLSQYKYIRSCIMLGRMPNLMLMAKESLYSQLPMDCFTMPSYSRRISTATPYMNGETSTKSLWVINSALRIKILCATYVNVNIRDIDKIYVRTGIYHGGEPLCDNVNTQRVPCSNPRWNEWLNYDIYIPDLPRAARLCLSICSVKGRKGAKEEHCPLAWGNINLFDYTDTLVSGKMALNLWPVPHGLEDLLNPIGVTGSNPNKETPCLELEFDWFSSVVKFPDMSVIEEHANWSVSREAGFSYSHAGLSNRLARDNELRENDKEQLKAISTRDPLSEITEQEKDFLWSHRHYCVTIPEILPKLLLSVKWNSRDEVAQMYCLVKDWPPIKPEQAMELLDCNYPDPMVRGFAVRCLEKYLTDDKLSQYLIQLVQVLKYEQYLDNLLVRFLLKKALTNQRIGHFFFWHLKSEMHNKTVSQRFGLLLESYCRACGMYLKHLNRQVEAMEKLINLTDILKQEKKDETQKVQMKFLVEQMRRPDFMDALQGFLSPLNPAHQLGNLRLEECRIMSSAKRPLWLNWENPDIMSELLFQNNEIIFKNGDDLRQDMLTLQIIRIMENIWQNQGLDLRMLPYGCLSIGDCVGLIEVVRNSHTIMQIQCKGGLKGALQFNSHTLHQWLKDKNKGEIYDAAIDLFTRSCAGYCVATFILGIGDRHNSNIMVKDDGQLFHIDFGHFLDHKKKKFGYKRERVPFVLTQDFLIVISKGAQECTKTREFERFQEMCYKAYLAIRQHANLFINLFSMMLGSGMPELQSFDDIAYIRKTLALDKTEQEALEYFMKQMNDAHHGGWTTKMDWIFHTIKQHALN
# experimental details: Inhibition of PI3Kalpha-induced PIP-2 phosphorylation (filter-binding assay)
# recorded conditions: 33P-ATP, p85alpha/His-p110alpha, read-out: IC50 PI3Kα
Remember, pIC50 is on a log scale: it is -log10 of the molar concentration.

[[record]]
smiles_text = "COc1ncc(C#Cc2c(C)ncnc2N2CCOCC2)cc1NS(C)(=O)=O"
result_number = 9.19


The reported pIC50 of the compound `Cc1ncc(C#Cc2c(C)ncnc2N2CCOCC2)cc1NS(=O)(=O)c1ccccc1C(F)(F)F` was 9.20
